The following molecules are shown together with reported IC50 values.
- Test System: human Nav1.8 (hNav1.8) ion channel (Homo sapiens, UniProt Q9Y5Y9)
- Construct: expressed in transfected cells
- Sequence (Q9Y5Y9 whole entry): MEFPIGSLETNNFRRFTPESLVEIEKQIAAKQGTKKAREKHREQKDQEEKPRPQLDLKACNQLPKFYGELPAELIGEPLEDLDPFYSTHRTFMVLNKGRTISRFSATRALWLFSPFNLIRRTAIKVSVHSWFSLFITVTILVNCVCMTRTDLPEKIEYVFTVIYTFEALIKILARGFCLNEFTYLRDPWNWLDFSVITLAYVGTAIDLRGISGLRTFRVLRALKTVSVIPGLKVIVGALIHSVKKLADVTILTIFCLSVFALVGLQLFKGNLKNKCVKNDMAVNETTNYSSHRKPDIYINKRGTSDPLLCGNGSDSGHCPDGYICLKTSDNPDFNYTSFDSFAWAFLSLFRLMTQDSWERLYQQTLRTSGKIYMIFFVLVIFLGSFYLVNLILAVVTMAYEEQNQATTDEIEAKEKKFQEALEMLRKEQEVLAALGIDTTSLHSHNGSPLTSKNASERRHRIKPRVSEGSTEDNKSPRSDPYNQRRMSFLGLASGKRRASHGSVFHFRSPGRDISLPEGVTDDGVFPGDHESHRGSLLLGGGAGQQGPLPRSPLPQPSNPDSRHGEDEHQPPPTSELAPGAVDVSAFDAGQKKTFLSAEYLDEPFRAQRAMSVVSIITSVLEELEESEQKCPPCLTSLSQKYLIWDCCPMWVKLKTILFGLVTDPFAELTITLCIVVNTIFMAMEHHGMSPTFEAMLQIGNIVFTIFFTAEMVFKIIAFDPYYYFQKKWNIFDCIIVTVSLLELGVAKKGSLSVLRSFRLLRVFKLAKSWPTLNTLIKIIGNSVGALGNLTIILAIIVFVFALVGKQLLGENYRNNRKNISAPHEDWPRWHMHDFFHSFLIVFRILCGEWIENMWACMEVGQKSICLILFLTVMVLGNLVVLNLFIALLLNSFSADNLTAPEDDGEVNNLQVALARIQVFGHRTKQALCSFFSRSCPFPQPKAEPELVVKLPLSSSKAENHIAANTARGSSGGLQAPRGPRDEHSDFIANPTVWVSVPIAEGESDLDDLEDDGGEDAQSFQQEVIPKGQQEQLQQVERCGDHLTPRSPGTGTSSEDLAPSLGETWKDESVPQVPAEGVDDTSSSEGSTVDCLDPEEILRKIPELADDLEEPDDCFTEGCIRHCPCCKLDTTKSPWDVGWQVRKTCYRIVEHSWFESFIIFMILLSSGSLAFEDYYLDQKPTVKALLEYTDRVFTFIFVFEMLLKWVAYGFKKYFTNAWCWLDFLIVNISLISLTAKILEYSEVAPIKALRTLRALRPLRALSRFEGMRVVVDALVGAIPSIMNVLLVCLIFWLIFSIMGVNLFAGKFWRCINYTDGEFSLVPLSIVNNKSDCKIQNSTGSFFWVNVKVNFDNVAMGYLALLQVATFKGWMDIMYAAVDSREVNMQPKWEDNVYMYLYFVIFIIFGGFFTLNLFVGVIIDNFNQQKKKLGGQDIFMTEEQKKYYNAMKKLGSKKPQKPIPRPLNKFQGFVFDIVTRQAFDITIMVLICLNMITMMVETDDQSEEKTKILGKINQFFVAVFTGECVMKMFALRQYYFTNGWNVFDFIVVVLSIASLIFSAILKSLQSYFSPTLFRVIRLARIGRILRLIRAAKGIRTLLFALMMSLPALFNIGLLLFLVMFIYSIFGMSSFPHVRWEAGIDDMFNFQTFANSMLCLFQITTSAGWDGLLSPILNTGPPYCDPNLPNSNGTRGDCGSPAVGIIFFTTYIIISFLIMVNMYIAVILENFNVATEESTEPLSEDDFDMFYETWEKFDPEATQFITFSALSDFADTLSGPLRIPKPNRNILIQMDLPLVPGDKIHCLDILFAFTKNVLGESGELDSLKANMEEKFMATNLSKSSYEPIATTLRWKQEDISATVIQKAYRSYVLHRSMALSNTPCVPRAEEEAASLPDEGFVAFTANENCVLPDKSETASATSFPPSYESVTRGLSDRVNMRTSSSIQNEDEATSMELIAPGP
- Method Notes: Inhibition of human Nav1.8 stably expressed in SH-SY-5Y cells (membrane potential dye fluorescence assay)
- Assay type: cell-based
- Study Conditions: Table 2 (compound numbers of the list in the description); SH-SY-5Y hNav1.8 cells, inhibition of membrane depolarisation, FLIPR membrane potential dye, 250 nM TTX, test concentration range 100 μM-0.05 μM; read-out: IC50
Output spec: scalar in µM, unitless text.

Field IC50 (entry Nc1cccc2c1CN(CC(=O)N(Cc1ccccc1)Cc1ccccc1)C2 [Compound 101] ) reads 4.26

The molecule COc1cccc2c1CN(CC(=O)NC1c3ccccc3Oc3ccccc31)CC2 [Compound 180] showed IC50 equal to 5.19

Recorded IC50 (molecule COc1ccc(C(CCNC(=O)CN2CCc3ccccc3C2)c2ccc(OC)cc2)cc1 [Compound 114] ): 10.6

Quick note, IC50 for COc1cc2c(cc1OC)CN(CC(=O)N1c3ccccc3[S+]([O-])c3ccccc31)CC2 [Compound 157] landed at 30

The molecule listed as Nc1cccc2c1CN(CC(=O)NCC(c1ccccc1)c1ccccc1)C2 [Compound 98] has a reported IC50 of 6.76

COc1cc2c(cc1OC)CN(CCNC(=O)N1c3ccccc3Oc3ccccc31)CC2 [Compound 165] yielded IC50 of 1.02

---

- Test System: human Nav1.8 (hNav1.8) ion channel (Homo sapiens)
- Construct: expressed in transfected cells
- Method Notes: Inhibition of human Nav1.8 stably expressed in SH-SY-5Y cells (membrane potential dye fluorescence assay)
- Type: cell-based
- Study Conditions: Table 2 (compound numbers of the list in the description); SH-SY-5Y hNav1.8 cells, inhibition of membrane depolarisation, FLIPR membrane potential dye, 250 nM TTX, test concentration range 100 μM-0.05 μM; read-out: IC50
- Protocol: Inhibition of Human Nav1.8 Stably Expressed in SH-SY-5Y Cells A SH-SY-5Y neuroblastoma cell line stably expressing the human […] (hNav1.8) ion channel was constructed. […] Cell plates are incubated for 30 minutes at room temperature to allow equilibration of dye and test compound. Plates are then transferred to a fluorescence plate reader for fluorescence measurement using an excitation wavelength of 530 nm whilst measuring fluorescence emission at 565 nm. […]
Catalogue of pIC50 readings, one per entry.
# pIC50: negative log10 of molar concentration; output just the value

Solved cases below.
# Molecule, Observed Value
records = [
    ("COc1cccc2c1CN(CCNC(=O)Nc1ccc(Oc3ccccc3)cc1)CC2", 6.26),
    ("COc1cccc2c1CN(CC(=O)N1c3ccccc3OCC1C)CC2 (centres unmarked)", 5.33),
    ("O=C(CN1CCc2cccnc2C1)N1c2ccccc2Oc2ccccc21", 5.25),
    ("C=CCOc1cccc2c1CN(CC(=O)NCCC(c1ccccc1)c1ccccc1)CC2", 5.64),
]

// below: pIC50 requested for another molecule
// sample COc1cccc2c1CN(CC(=O)NC(C)c1ccccc1)CC2 (centres unmarked) , its pIC50 was 4.80

---

- Test System: human Nav1.8 (hNav1.8) ion channel (Homo sapiens, UniProt Q9Y5Y9)
- Construct: expressed in transfected cells
- Method Notes: Inhibition of human Nav1.8 stably expressed in SH-SY-5Y cells (membrane potential dye fluorescence assay)
- Assay type: cell-based
- Study Conditions: Table 2 (compound numbers of the list in the description); SH-SY-5Y hNav1.8 cells, inhibition of membrane depolarisation, FLIPR membrane potential dye, 250 nM TTX, test concentration range 100 μM-0.05 μM; read-out: IC50
Endpoint Label: IC50 (nM)
Lab book: enter the figure in nM, no units written.

These solved cases illustrate the format of a correct answer.
# Entry Smiles, Test System, Endpoint Label, Observed Value
measured = [
    ("O=C(CN1CCc2cccc(O)c2C1)N(c1ccccc1)c1ccccc1", "human Nav1.8 (hNav1.8) ion channel (Homo sapiens, UniProt Q9Y5Y9)", "IC50", 9090),
    ("COc1cccc2c1CN(CCNC(=O)N1c3ccccc3Oc3ccccc31)CC2", "human Nav1.8 (hNav1.8) ion channel (Homo sapiens, UniProt Q9Y5Y9)", "IC50", 710),
    ("COc1cccc2c1CN(CC(=O)N1c3ccccc3CCc3ccccc31)CC2", "human Nav1.8 (hNav1.8) ion channel (Homo sapiens, UniProt Q9Y5Y9)", "IC50", 1280),
    ("O=C(NCCN1CCc2cccc(O)c2C1)N1c2ccccc2Oc2ccccc21", "human Nav1.8 (hNav1.8) ion channel (Homo sapiens, UniProt Q9Y5Y9)", "IC50", 770),
    ("O=C(CCN1CCc2cccc(O)c2C1)N1c2ccccc2Oc2ccccc21", "human Nav1.8 (hNav1.8) ion channel (Homo sapiens, UniProt Q9Y5Y9)", "IC50", 530),
]

Short answer for `COc1cccc2c1CN(CC(=O)NCCC(c1ccccc1)c1ccccc1)C2` : IC50 was 2090

IC50 for `COc1cccc2c1CN(CC(=O)NN(c1ccccc1)c1ccccc1)CC2` is 2010

Item: `COc1cccc2c1CN(CC(=O)Nc1ccc(Oc3ccccc3)cc1)CC2` | IC50: 6270

Consider `COc1cccc2c1CN(CC(=O)NC(c1ccc(F)cc1)c1ccc(F)cc1)CC2` . Its measured IC50 is 3340

Values from patent US20070043024A1
